# Procedure summary: binders of probe aFGF10 on microarray, primary screen, stem cell growth factor project, biochemical, small-molecule microarray, fluorescence 635/667 (AID 1071);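 note: score merges 667 nm spot intensity and signal to noise from triplicate slides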
# Condition description: higher = more signal
I'd be grateful if you could share measured composite z-score for these entries.
Just the number.

Problem: What value of composite z-score has been reported for the following compound? `C=CCNC(=O)[C@H]1[C@@H]2C(=O)O[C@@H](c3ccccc3)[C@@H](c3ccccc3)N2[C@@H](c2ccc(O)cc2)[C@]12C(=O)N(C(=O)OCCOC)c1ccc(C#CCC(C(=O)OC)C(=O)OC)cc12`
Result: 0.453

Problem: Consider the compound O=C1C2C=CC(C(O)c3cc(C(F)(F)F)cc(C(F)(F)F)c3)N(Nc3ccccc3F)C2C(=O)N1c1ccccc1 (configuration not stated) and give its measured composite z-score.
Result: 0.233

Problem: I have this compound here, CN1C(=O)C2C(C1=O)C1C=C(CCCO)C2C(C2CC2)N1Cc1cc2c(cc1Br)OCO2 (configuration not stated) , and I need its recorded composite z-score.
Result: 0.271

Problem: Given the entry `COC(=O)[C@@]1(Cc2ccc(OC)cc2)[C@H]2c3cc(C(=O)N4CCCC4)n(Cc4ccc(OC(F)(F)F)cc4)c3C[C@H]2CN1C(=O)c1ccccc1` , report its measured composite z-score.
Result: 0.703

Problem: Reported composite z-score, compound CN1C(=O)C2C=CC(C(O)c3cc(C(F)(F)F)cc(C(F)(F)F)c3)N(Nc3ccccc3)C2C1=O (configuration not stated) : ____
Result: 0.05

Problem: I'd like to know its composite z-score. The compound in question is `C[C@@H]1ON(c2ccc(I)cc2)[C@H](c2ccc(OC(=O)OC(C)(C)C)cc2)[C@H]1C(=O)N1C(=O)OC[C@H]1Cc1ccccc1`
Result: 0.253

Problem: Fill blank: measured composite z-score of the compound CC(C)C[C@@H]1NC(=O)CNC(=O)[C@@]23C(=O)N[C@@H](Cc4ccccc4)C2[C@H](C)[C@@]2(C)O[C@H]2C3/C=C/C/C=C\CNC1=O (some centres not stated) is ____.
Result: 0.68
